# reported TGI; entries follow
System: SF-295 CNS
protocol-text: NCI tumour cell line growth inhibition, 48 h
property-label: TGI (µM)

compound="CC1OC(O[C@H]2C[C@@H](O)[C@]3(CO)[C@H]4[C@H](O)C[C@]5(C)[C@@H](C6=CC(=O)OC6)CC[C@]5(O)[C@@H]4CC[C@]3(O)C2)C(O)C(O)C1O (stereo not given in full)" experimental_target="SF-295 CNS" property_label=TGI units_symbol=µM comparison_operator== recorded_value=35.3
compound=Cc1c(-c2nc3ccccc3[nH]2)c(=O)n(-c2ccccc2)n1C experimental_target="SF-295 CNS" property_label=TGI units_symbol=µM comparison_operator=> recorded_value=100
compound=CCCCCCCCCCCC(=O)CC(=O)c1c(O)cccc1O experimental_target="SF-295 CNS" property_label=TGI units_symbol=µM comparison_operator== recorded_value=34.8
compound="CSc1ccc(C2=NN(C(C)=O)C(c3cc(C)cs3)C2)cc1 (stereo not given)" experimental_target="SF-295 CNS" property_label=TGI units_symbol=µM comparison_operator=> recorded_value=100
compound=CCCCC/C(C=C(C#N)C#N)=C/c1ccccc1 experimental_target="SF-295 CNS" property_label=TGI units_symbol=µM comparison_operator== recorded_value=14.6
